Hey, just so you know, these numbers are from patent US10479780B2.

target: human Src enzyme (Homo sapiens, UniProt P12931)
Construct: purchased Carna Biosciences, Inc. 08-173
Sequence (P12931 whole entry): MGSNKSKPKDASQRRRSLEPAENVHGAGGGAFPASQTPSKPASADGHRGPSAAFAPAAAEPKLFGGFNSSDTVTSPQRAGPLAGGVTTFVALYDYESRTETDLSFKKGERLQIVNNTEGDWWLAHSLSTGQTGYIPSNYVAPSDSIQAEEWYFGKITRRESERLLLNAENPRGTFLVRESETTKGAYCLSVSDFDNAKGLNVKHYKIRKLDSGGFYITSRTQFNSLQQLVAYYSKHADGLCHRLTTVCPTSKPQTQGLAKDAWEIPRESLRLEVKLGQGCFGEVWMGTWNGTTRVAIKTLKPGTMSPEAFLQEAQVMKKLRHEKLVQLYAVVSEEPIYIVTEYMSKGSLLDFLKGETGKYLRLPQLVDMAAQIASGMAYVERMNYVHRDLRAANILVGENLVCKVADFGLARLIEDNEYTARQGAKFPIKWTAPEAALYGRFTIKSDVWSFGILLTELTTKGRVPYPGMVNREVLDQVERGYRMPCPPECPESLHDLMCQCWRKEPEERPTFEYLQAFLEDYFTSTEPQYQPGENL
experimental protocol: Src enzyme inhibitory activity (time-resolved fluorometry, biotinylated peptide phosphorylation)
Type: biochemical
experimental context: biotinylated peptide phosphorylation, read-out: SRC_IC50
Description: 2. Src Enzyme Inhibitory Activity Src inhibitory activity was determined based on activity of inhibiting phosphorylation reaction of a biotinylated peptide (EGPWLEEEEEAYGWMDF) using a human Src enzyme (manufactured by Carna Biosciences, Inc., cat 08-173). The phosphorylated biotinylated peptide was detected by time-resolved fluorometry using an anti-phosphorylated tyrosine antibody conjugated to europium cryptate, and streptavidin conjugated to XL665, an allophycocyanin derivative. […]
endpoint: IC50 (nM)

entry smiles: Cc1cc(Oc2cccc(F)c2F)cc(F)c1-n1ncc(C(=O)c2cc3cc(Cl)c(NS(C)(=O)=O)cc3[nH]2)c1N
experimental value: 170

a. Cc1cc(Oc2ccccc2F)ccc1-n1ncc(C(=O)c2cc3cc(OC(F)F)c(-n4c(C)cc(=O)[nH]c4=O)cc3[nH]2)c1N
b. Cc1cc2cc(C(=O)c3cnn(-c4cnc(Oc5ccccc5F)cc4C)c3N)[nH]c2cc1NS(=O)(=O)c1ccc2ccccc2c1
c. COc1ccccc1-c1cc2[nH]c(C(=O)c3cnn(-c4cnc(Oc5c(F)cccc5F)cc4C)c3N)cc2cc1OC1CCN(C2CCCC2)CC1
d. Cc1cc(Oc2cccc(F)c2F)ncc1-n1ncc(C(=O)c2cc3cc(F)c(NS(=O)(=O)C4CC4)cc3[nH]2)c1N
e. Cc1cc(Oc2ccccc2F)ccc1-n1ncc(C(=O)c2cc3cc(F)c(NS(C)(=O)=O)cc3[nH]2)c1N
Please list these compounds in decreasing order of IC50. In plain terms: list the labels in the order you were asked to.
b, d, c, e, a

----------
target: human Src enzyme (Homo sapiens, UniProt P12931)
Construct: purchased Carna Biosciences, Inc. 08-173
experimental protocol: Src enzyme inhibitory activity (time-resolved fluorometry, biotinylated peptide phosphorylation)
Format: biochemical
experimental context: biotinylated peptide phosphorylation, read-out: SRC_IC50
Experimental: 2. Src Enzyme Inhibitory Activity Src inhibitory activity was determined based on activity of inhibiting phosphorylation reaction of a biotinylated peptide (EGPWLEEEEEAYGWMDF) using a human Src enzyme (manufactured by Carna Biosciences, Inc., cat 08-173). The phosphorylated biotinylated peptide was detected by time-resolved fluorometry using an anti-phosphorylated tyrosine antibody conjugated to europium cryptate, and streptavidin conjugated to XL665, an allophycocyanin derivative. […]
pIC50: −log10 of the molar value.
endpoint: pIC50

For orientation, consider the following solved cases.
entry smiles: Cc1cc(Oc2ccccc2F)ccc1-n1ncc(C(=O)c2cc3cc(OC(F)F)c(NS(=O)(=O)CCCF)cc3[nH]2)c1N
pIC50: 7.26

entry smiles: COc1cc2cc(C(=O)c3cnn(-c4c(C)cc(Oc5ccccc5F)cc4F)c3N)[nH]c2cc1NS(C)(=O)=O
pIC50: 7.13

entry smiles: COCCNS(=O)(=O)Nc1cc2[nH]c(C(=O)c3cnn(-c4ccc(Oc5ccccc5F)cc4C)c3N)cc2cc1F
pIC50: 7.48

1. Cc1cc(Oc2ccccc2F)ncc1-n1ncc(C(=O)c2cc3cc(OCC(F)F)c(N4CCCS4(=O)=O)cc3[nH]2)c1N
2. Cc1cc(Oc2c(F)cccc2F)ncc1-n1ncc(C(=O)c2cc3cc(OCC(F)F)c(NS(=O)(=O)CCCF)cc3[nH]2)c1N
3. Cc1cc(Oc2ccccc2F)ncc1-n1ncc(C(=O)c2cc3cc(OCC(F)F)c(NS(=O)(=O)c4cc(F)cc(F)c4)cc3[nH]2)c1N
Falling order of pIC50, please. Labels, ranked as asked.
1, 2, 3

----------
target: human Src enzyme (Homo sapiens, UniProt P12931)
Construct: purchased Carna Biosciences, Inc. 08-173
experimental protocol: Src enzyme inhibitory activity (time-resolved fluorometry, biotinylated peptide phosphorylation)
Type: biochemical
experimental context: read-out: SRC_IC50
pIC50: −log10 of the molar value.
endpoint: pIC50

P. Cc1cc(-n2ncc(C(=O)c3cc4cc(OC5CCN(C6COC6)CC5)c(Br)cc4[nH]3)c2N)ccc1Oc1ccccc1F [Example 5-1-220]
Q. Cc1cc(-n2ncc(C(=O)c3cc4cc(OCC(F)F)c(N5CCOCC5)cc4[nH]3)c2N)ccc1Oc1ccccc1F [Example 5-1-169]
R. CC(C)N1CCC(c2cc3cc(C(=O)c4cnn(-c5ccc(Oc6ccccc6Cl)cc5)c4N)[nH]c3cc2F)CC1 [Example 5-1-001]
S. Cc1cc(Oc2ccccc2F)ccc1-n1ncc(C(=O)c2cc3cc(OCC(F)F)c(N4C(=O)OC[C@H]4Cc4ccccc4)cc3[nH]2)c1N [Example 5-1-244]
T. Cc1cc(Oc2c(F)cccc2F)ncc1-n1ncc(C(=O)c2cc3cc(OC4CCN(C(C)C)CC4)c(N4C(=O)NC(C)(C)C4=O)cc3[nH]2)c1N [Example 5-1-188]
Sort key: pIC50. Order: high to low. Scope: items listed above. Reply with the item labels sorted in the order that was asked for.
T, R, S, Q, P

----------
target: human Yes1 enzyme (Homo sapiens, UniProt P07947)
Construct: made in house
Sequence (P07947 whole entry): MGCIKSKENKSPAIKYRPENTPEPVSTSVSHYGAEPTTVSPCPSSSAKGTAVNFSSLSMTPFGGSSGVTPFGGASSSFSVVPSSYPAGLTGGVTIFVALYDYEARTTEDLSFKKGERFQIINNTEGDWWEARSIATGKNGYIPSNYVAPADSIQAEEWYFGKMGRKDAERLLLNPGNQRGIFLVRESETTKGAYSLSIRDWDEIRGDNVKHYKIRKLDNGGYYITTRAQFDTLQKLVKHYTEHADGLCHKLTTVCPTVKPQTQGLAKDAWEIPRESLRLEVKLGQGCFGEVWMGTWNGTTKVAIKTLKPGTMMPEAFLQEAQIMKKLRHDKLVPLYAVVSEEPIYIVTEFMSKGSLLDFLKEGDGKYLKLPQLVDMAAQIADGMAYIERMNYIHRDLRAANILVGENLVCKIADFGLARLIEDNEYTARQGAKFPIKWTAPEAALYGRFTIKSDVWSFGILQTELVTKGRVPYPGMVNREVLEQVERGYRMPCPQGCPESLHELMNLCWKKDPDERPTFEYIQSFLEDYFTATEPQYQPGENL
experimental protocol: Yes1 enzyme inhibitory activity (time-resolved fluorometry, biotinylated peptide phosphorylation)
Format: biochemical
experimental context: read-out: YES_IC50
pIC50: −log10 of the molar value.
endpoint: pIC50

entry smiles: Cc1cc(Oc2ccccc2F)ccc1-n1ncc(C(=O)c2cc3cc(OCC(F)F)c(N4CC5(CCCC5)NS4(=O)=O)cc3[nH]2)c1N
pIC50: 8.04

P. Nc1c(C(=O)c2cc3cc(F)c(NS(=O)(=O)CCCF)cc3[nH]2)cnn1-c1c(Cl)cc(Oc2cccc(F)c2F)cc1Cl
Q. Cc1cc(Oc2c(F)cccc2F)ncc1-n1ncc(C(=O)c2cc3cc(OC4CCN(C(C)C)CC4)c(F)cc3[nH]2)c1N
Please indicate which has the smaller reported pIC50: P , or Q . Bench note: the answer is the label of the chosen record.
P
(P: 7.89, Q: 9.30)

----------
target: human Src enzyme (Homo sapiens, UniProt P12931)
Construct: purchased Carna Biosciences, Inc. 08-173
experimental protocol: Src enzyme inhibitory activity (time-resolved fluorometry, biotinylated peptide phosphorylation)
Type: biochemical
experimental context: biotinylated peptide phosphorylation, read-out: SRC_IC50
Description: 2. Src Enzyme Inhibitory Activity Src inhibitory activity was determined based on activity of inhibiting phosphorylation reaction of a biotinylated peptide (EGPWLEEEEEAYGWMDF) using a human Src enzyme (manufactured by Carna Biosciences, Inc., cat 08-173). The phosphorylated biotinylated peptide was detected by time-resolved fluorometry using an anti-phosphorylated tyrosine antibody conjugated to europium cryptate, and streptavidin conjugated to XL665, an allophycocyanin derivative. […]
pIC50: −log10 of the molar value.
endpoint: pIC50

compound: Cc1cc2cc(C(=O)c3cnn(-c4ccc(Oc5ccccc5F)cc4C)c3N)[nH]c2cc1NS(=O)(=O)CC(=O)N1CCOCC1 [Example 4-10-007]
experimental value: 7.89

1. Cc1cc(Oc2ccccc2F)ncc1-n1ncc(C(=O)c2cc3cc(OC(F)F)c(C4CCN(S(C)(=O)=O)CC4)cc3[nH]2)c1N [Example 4-17-009]
2. Cc1cc(Oc2c(F)cccc2F)ncc1-n1ncc(C(=O)c2cc3cc(OCC(F)F)c(NS(=O)(=O)C4CC4)cc3[nH]2)c1N [Example 4-24-030]
Decide: 1 or 2 , by lowest recorded pIC50. When you have decided, please share the label of that item.
2

----------
target: human Yes1 enzyme (Homo sapiens)
Construct: made in house
experimental protocol: Yes1 enzyme inhibitory activity (time-resolved fluorometry, biotinylated peptide phosphorylation)
Assay type: biochemical
experimental context: biotinylated peptide phosphorylation, read-out: YES_IC50
endpoint: IC50 (nM)

entry smiles: Cc1cc2cc(C(=O)c3cnn(-c4c(C)cc(Oc5cccc(F)c5F)cc4F)c3N)[nH]c2cc1N1CCCS1(=O)=O
endpoint unit: nM
IC50: 4.1
--
entry smiles: Cc1cc(Oc2ccccc2F)ccc1-n1ncc(C(=O)c2cc3cc(OCC(F)F)c(N4CCCS4(=O)=O)cc3[nH]2)c1N
endpoint unit: nM
IC50: 3.5
--
entry smiles: Cc1cccc(S(=O)(=O)Nc2cc3[nH]c(C(=O)c4cnn(-c5cnc(Oc6c(F)cccc6F)cc5C)c4N)cc3cc2F)n1
endpoint unit: nM
IC50: 4.7
--
entry smiles: Cc1cccc(S(=O)(=O)Nc2cc3[nH]c(C(=O)c4cnn(-c5cnc(Oc6c(F)cccc6F)cc5C)c4N)cc3cc2OCC(F)F)n1
endpoint unit: nM
IC50: 2.9
--
entry smiles: Cc1cc(Oc2c(F)cccc2F)ncc1-n1ncc(C(=O)c2cc3cc(OCC(F)F)c(NS(C)(=O)=O)cc3[nH]2)c1N
endpoint unit: nM
IC50: 1.2

A. Cc1cc2[nH]c(C(=O)c3cnn(-c4c(C)cc(Oc5ccccc5F)cc4F)c3N)cc2cc1NS(C)(=O)=O
B. Cc1cc(Oc2ccccc2F)ccc1-n1ncc(C(=O)c2cc3cc(F)c(NS(=O)(=O)NCCO)cc3[nH]2)c1N
C. Cc1cc(Oc2ccccc2F)ncc1-n1ncc(C(=O)c2cc3cc(OCC(F)F)c(NS(=O)(=O)c4cc(F)cc(F)c4)cc3[nH]2)c1N
D. Cc1cc(Oc2ccccc2F)ncc1-n1ncc(C(=O)c2cc3cc(OCC(F)F)c(NS(=O)(=O)CCCF)cc3[nH]2)c1N
Arrange the 4 compounds by rising IC50, starting with the smallest. Returns: the labels listed in the requested order.
B, A, D, C
(B: 0.35 nM, A: 0.59 nM, D: 1.6 nM, C: 6.3 nM)
